measurement target: UniProtKB P29274
Sequence (P29274 whole entry): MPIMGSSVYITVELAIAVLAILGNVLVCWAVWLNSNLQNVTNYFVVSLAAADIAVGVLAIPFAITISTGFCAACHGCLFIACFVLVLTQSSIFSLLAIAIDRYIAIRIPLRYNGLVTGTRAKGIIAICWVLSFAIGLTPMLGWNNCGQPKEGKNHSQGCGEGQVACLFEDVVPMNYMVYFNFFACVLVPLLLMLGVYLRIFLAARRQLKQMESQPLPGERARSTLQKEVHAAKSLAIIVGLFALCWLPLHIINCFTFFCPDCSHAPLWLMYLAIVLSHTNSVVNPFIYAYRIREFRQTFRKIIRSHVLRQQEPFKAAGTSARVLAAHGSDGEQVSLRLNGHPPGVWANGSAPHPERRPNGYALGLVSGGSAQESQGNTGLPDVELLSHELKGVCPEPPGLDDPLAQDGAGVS
procedure text: Displacement of [3H]-SCH- 58261 from human adenosine A2A receptor expressed in CHO cells; range 1220-1590
Format: cell-based
parameter: pKi
Scale: pKi equals -log10([C]), with [C] in mol/L.

Please state recorded pKi (tested on UniProtKB P29274) of COc1ccc(NC(=O)Nc2nc3nn(C)cc3c3nc(-c4ccco4)nn23)cc1 5.86

###

measurement target: Adenosine receptor A2b (Homo sapiens, UniProt P29275)
Sequence (P29275 whole entry): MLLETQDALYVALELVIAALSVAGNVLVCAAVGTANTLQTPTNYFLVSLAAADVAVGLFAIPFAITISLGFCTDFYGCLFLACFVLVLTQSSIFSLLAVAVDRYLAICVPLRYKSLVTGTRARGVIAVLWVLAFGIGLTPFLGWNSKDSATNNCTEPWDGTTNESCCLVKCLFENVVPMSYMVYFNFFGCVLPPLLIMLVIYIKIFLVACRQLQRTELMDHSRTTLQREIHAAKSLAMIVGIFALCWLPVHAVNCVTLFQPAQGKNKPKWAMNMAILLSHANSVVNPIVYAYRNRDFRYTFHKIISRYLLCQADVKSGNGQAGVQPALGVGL
procedure text: Displacement of [3H]DPCPX from Adenosine A2b receptor expressed in CHO cells
Assay type: cell-based
pKi: −log10 of the molar value.
parameter: pKi

COc1ccc(NC(=O)Nc2nc3nn(CCc4cc(Br)c(Br)cc4Br)cc3c3nc(-c4ccco4)nn23)cc1 = < 5.00

Which pKi is listed for O=C(Nc1cccc(Cl)c1)Nc1nc2nn(CCc3cccc4ccccc34)cc2c2nc(-c3ccco3)nn12 ? < 5.00

What pKi value was documented for this compound, COc1ccc(NC(=O)Nc2nc3nn(CCc4cccc5ccccc45)cc3c3nc(-c4ccco4)nn23)cc1 ? < 5.00
